experiment: Primary qHTS for delayed death inhibitors of the malarial parasite plastid, 48 hour incubation; conditions: P. falciparum luciferase growth in erythrocytes; series mostly up to 28.7 µM
About 18,000 (5.8%) of roughly 310,000 compounds were called active. Another 22% or so got no clear call; they are omitted. Calls come from the whole dose curve; as a rule, active = well fitted inhibition curve with a large enough effect; inconclusive = small, poorly fitted or top-dose-only effect, or another doubt; inactive = no such curve, though single readings can be large or run the other way. The sample holds actives, similar compounds and a random draw of the others, so the mix is not that of the screen.
Possible outcomes: active, inactive

{"columns": ["compound", "discreteLabel"],
 "data": [
  ["CCOC(=O)c1cnc(-n2nc(C)cc2C)nc1NNc1cc(C)nc(-c2ccccc2)n1", "active"],
  ["CC(C)c1ccc(N(C(=O)c2ccco2)C(C(=O)NC2CCCC2)c2cccnc2)cc1 (configuration not stated)", "active"],
  ["COc1ccc2c(c1)C=CC1(O2)N(CCO)c2ccccc2C1(C)C (configuration not stated)", "active"],
  ["Cc1sc2ncn(CC(=O)NCCCC(=O)N3CCN(c4ccccc4F)CC3)c(=O)c2c1C", "inactive"],
  ["CC(C)c1c(C(=O)N/N=C/c2ccc(-c3ccccc3)cc2)nnn1-c1nonc1N", "inactive"],
  ["Cc1ccc2nc(SCC(=O)N3CCN(c4ccccc4)CC3)nc(=O)n2c1", "inactive"],
  ["CCOC(=O)c1cnc(-n2nc(C)cc2C)nc1-n1nc(C)cc1C", "inactive"]
]}
